These records show pIC50 for CLK1 (Mus musculus, UniProt P22518).
Give bare numbers, as −log10 of the molar value.

Below: 5 compounds and their reported pIC50.
N#Cc1c(-c2ccccc2)[nH]c2ccccc12: 6.10
N#Cc1c(C2CCCC2)[nH]c2c(I)cccc12: 6.92
N#Cc1c(-c2ccccc2)[nH]c2c(I)cccc12: 7.10
CC(C)c1[nH]c2c(I)cccc2c1C#N: 7.00
N#Cc1c(-c2cccnc2)[nH]c2c(I)cccc12: 6.70

Would you mind listing pIC50 for each of the following compounds?
1. N#Cc1c[nH]c2c(Br)cccc12
2. N#Cc1c[nH]c2c(I)cccc12
3. Cn1cc(C#N)c2cccc(Br)c21 [Compound 13d]
4. N#Cc1c(CC(O)CO)[nH]c2c(Cl)cccc12 (centres unmarked)
5. N#Cc1c(C2CC2)[nH]c2c(I)cccc12

[5.54, 5.72, 5.48, 5.70, 6.96]

----------
biological target: DYRK1B (Homo sapiens)
Sequence (Q9Y463 whole entry): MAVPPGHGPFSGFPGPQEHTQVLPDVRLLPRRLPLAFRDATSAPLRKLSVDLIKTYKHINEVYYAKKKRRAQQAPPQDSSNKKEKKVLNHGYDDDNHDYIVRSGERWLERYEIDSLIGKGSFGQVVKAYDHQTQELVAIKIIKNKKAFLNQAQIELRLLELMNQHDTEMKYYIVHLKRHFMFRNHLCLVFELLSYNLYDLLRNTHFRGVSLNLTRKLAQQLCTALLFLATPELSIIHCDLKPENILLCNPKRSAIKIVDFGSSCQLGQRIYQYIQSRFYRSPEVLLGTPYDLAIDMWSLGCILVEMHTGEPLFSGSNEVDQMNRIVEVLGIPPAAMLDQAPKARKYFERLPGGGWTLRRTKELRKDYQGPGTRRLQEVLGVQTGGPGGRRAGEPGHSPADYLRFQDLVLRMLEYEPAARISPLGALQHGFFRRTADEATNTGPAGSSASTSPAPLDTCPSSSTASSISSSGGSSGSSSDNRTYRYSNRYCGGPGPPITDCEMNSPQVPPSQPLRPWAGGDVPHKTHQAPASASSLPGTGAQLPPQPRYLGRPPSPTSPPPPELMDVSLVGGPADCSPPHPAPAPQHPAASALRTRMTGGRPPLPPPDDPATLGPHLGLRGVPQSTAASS
I'd be grateful if you could share measured IC50 for these entries.

Cn1cc(C#N)c2cccc(Br)c21 [Compound 13d]: > 10 µM
N#Cc1c(-c2ccccc2)[nH]c2c(Cl)cccc12: > 10 µM

Attention now shifts to the item below.
May I ask what IC50 has been recorded for COc1ccc(-c2[nH]c3c(I)cccc3c2C#N)cc1 ?
> 10 µM

This collection of values is drawn from paper PMC6017736.
